This document collects pIC50 values reported for UniProt:Q12809.
Sequence (Q12809 whole entry): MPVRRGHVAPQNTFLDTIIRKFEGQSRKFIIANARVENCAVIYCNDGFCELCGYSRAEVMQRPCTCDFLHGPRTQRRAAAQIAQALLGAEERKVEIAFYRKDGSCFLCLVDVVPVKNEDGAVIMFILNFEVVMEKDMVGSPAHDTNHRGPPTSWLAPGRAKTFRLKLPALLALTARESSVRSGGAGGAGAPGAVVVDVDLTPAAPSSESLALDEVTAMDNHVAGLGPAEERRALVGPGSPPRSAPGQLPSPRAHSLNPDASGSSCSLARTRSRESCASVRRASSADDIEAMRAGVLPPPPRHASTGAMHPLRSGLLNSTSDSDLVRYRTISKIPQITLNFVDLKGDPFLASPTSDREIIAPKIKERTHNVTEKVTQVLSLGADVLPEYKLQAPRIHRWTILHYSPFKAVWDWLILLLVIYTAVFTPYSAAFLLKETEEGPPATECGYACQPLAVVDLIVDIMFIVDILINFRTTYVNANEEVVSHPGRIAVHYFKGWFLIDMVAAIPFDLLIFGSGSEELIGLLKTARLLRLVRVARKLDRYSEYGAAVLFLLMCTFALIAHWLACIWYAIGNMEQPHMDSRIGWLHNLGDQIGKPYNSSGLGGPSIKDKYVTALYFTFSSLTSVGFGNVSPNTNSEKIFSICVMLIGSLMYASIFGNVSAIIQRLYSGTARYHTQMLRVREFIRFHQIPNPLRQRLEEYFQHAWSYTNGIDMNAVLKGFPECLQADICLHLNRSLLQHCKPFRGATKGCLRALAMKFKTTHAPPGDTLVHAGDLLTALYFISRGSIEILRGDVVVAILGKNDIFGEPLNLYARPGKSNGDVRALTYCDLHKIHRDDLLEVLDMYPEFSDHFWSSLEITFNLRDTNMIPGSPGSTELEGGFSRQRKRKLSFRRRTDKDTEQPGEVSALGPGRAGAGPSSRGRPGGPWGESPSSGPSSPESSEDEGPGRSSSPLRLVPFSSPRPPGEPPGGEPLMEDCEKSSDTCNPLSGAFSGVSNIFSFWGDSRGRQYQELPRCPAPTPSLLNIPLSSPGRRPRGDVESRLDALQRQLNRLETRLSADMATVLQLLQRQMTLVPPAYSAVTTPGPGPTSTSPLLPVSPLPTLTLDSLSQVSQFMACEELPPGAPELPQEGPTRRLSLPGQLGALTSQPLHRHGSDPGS
pIC50: −log10 of the molar value.

smiles.record | measured.on | pIC50
COc1cncc(-n2c(=O)[nH]/c(=N\c3cc4cn(C)nc4cc3Cl)n(Cc3cc(Cl)c(F)cc3Oc3ccc(F)cc3)c2=O)c1 | UniProt:Q12809 | 4.80
Cn1cc2cc(/N=c3\[nH]c(=O)n(-c4cncc(O[C@H]5CCOC5)c4)c(=O)n3Cc3cc(Cl)c(F)cc3F)c(Cl)cc2n1 | UniProt:Q12809 | < 4.52
COCCOc1cncc(-n2c(=O)[nH]/c(=N\c3cc4cn(C)nc4cc3Cl)n(Cc3cc(C#N)ccc3C)c2=O)c1 | UniProt:Q12809 | < 4.52
Cc1ccc(C#N)cc1Cn1c(=O)n(-c2cncc(SC3CC3)c2)c(=O)[nH]/c1=N\c1cc2cn(C)nc2cc1Cl | UniProt:Q12809 | 4.72
Cc1cncc(-n2c(=O)[nH]/c(=N\c3cc4cn(C)nc4cc3Cl)n(Cc3cc(Cl)c(F)cc3Oc3ccc(C#N)c(F)c3)c2=O)c1 | UniProt:Q12809 | 5.06
Cc1cncc(-n2c(=O)[nH]/c(=N\c3cc4cn(C)nc4cc3Cl)n(Cc3cc(Cl)c(F)cc3Sc3cccc(F)c3)c2=O)c1 | UniProt:Q12809 | < 4.52
Cc1cncc(-n2c(=O)[nH]/c(=N\c3cc4cn(C)nc4cc3Cl)n(Cc3cc(Cl)c(F)c(Oc4ccc(F)cc4)c3)c2=O)c1 | UniProt:Q12809 | < 4.52
COCCOc1cncc(-n2c(=O)[nH]/c(=N\c3cc4cn(C)nc4cc3Cl)n(Cc3cc(Cl)c(F)cc3F)c2=O)c1 | UniProt:Q12809 | < 4.52

###

# assay.explanation: Half life in mouse at 10 mg/kg, po
# Format: ADME, organism-based
# protocol.conditions: in vivo
Listed here: items and their measured half-life.

smiles.record | half-life
Cc1cncc(-n2c(=O)[nH]/c(=N\c3cc4cn(C)nc4cc3Cl)n(Cc3cc(Cl)c(F)cc3Sc3cccc(F)c3)c2=O)c1 | 6 h
COCCOc1cncc(-n2c(=O)[nH]/c(=N\c3cc4cn(C)nc4cc3Cl)n(Cc3cc(C#N)ccc3C)c2=O)c1 | 2.8 h
Cn1cc2cc(/N=c3\[nH]c(=O)n(-c4cncc(O[C@H]5CCOC5)c4)c(=O)n3Cc3cc(F)c(F)cc3F)c(Cl)cc2n1 | 1.9 h
Cc1cncc(-n2c(=O)[nH]/c(=N\c3cc4cn(C)nc4cc3Cl)n(Cc3cc(Cl)c(F)c(Oc4ccc(F)cc4)c3)c2=O)c1 | 6.8 h
COc1cncc(-n2c(=O)[nH]/c(=N\c3cc4cn(C)nc4cc3Cl)n(Cc3cc(Cl)c(F)cc3Oc3ccc(F)cc3)c2=O)c1 | 5.1 h
Cc1ccc(C#N)cc1Cn1c(=O)n(-c2cncc(SC3CC3)c2)c(=O)[nH]/c1=N\c1cc2cn(C)nc2cc1Cl | 3.3 h
Cc1cncc(-n2c(=O)[nH]/c(=N\c3cc4cn(C)nc4cc3Cl)n(Cc3cc(C#N)ccc3Sc3ccc(Cl)s3)c2=O)c1 | 2.73 h

###

Documented AUC across a set of compounds
# assay.explanation: AUC in po dosed mouse
# Format: ADME, organism-based
# protocol.conditions: in vivo

smiles.record | uom | AUC
Cc1cncc(-n2c(=O)[nH]/c(=N\c3cc4cn(C)nc4cc3Cl)n(Cc3cc(C#N)ccc3Sc3ccc(Cl)s3)c2=O)c1 | ng·h/mL | 61400
Cn1cc2cc(/N=c3\[nH]c(=O)n(-c4cccnc4)c(=O)n3Cc3cc(F)c(F)cc3F)c(Cl)cc2n1 | ng·h/mL | 206000
COCCOc1cncc(-n2c(=O)[nH]/c(=N\c3cc4cn(C)nc4cc3Cl)n(Cc3cc(Cl)c(F)cc3F)c2=O)c1 | ng·h/mL | 39500
Cc1ccc(C#N)cc1Cn1c(=O)n(-c2cncc(SC3CC3)c2)c(=O)[nH]/c1=N\c1cc2cn(C)nc2cc1Cl | ng·h/mL | 36000
Cc1cncc(-n2c(=O)[nH]/c(=N\c3cc4cn(C)nc4cc3Cl)n(Cc3cc(Cl)c(F)c(Oc4ccc(F)cc4)c3)c2=O)c1 | ng·h/mL | 333000
Cc1cncc(-n2c(=O)[nH]/c(=N\c3cc4cn(C)nc4cc3Cl)n(Cc3cc(Cl)c(F)cc3Sc3cccc(F)c3)c2=O)c1 | ng·h/mL | 30000
Cn1cc2cc(/N=c3\[nH]c(=O)n(-c4cncc(O[C@H]5CCOC5)c4)c(=O)n3Cc3cc(Cl)c(F)cc3F)c(Cl)cc2n1 | ng·h/mL | 37400
Cn1cc2cc(/N=c3\[nH]c(=O)n(-c4cncc(O[C@H]5CCOC5)c4)c(=O)n3Cc3cc(F)c(F)cc3F)c(Cl)cc2n1 | ng·h/mL | 25600
Cc1cncc(-n2c(=O)[nH]/c(=N\c3cc4cn(C)nc4cc3Cl)n(Cc3cc(Cl)c(F)cc3Oc3ccc(C#N)c(F)c3)c2=O)c1 | ng·h/mL | 5620
COCCOc1cncc(-n2c(=O)[nH]/c(=N\c3cc4cn(C)nc4cc3Cl)n(Cc3cc(C#N)ccc3C)c2=O)c1 | ng·h/mL | 9220
COc1cncc(-n2c(=O)[nH]/c(=N\c3cc4cn(C)nc4cc3Cl)n(Cc3cc(Cl)c(F)cc3Oc3ccc(F)cc3)c2=O)c1 | ng·h/mL | 46700

Origin of values: ChEMBL document CHEMBL6134832
